Recorded apparent KD of MS2 coat protein by entry
- Tested on: MS2 coat protein
- Protocol: apparent KD of MS2 coat protein; designed switch direction (-1 OFF switch, 1 ON switch): -1; higher = weaker reporter binding
- Reported Conditions: Eterna round: R95; input ligand: none
Expressed in nM, but write only the number.

Here's what some known entries look like.
1) GAAGAAGAGAGAAUAGAAAACAUGAGGAUCACCCAUGUUAAGAGAUGAGGGUGUAAUAGGAUUUUUGCUCGUCUUAU (puzzle: Sensor v3, turn-off variant 1) ... 40.5
2) UAUUAACAAGCUAGAUCCUACAUGAGGAUCACCCAUGUGCUCGUCUUAUAAGGUACUGUGACGAAAGUCACGGUACC [Sensor 3, v1 - 76] (puzzle: Sensor v3, turn-off variant 1) ... 243
3) GGUGCUGGCGCGUCGGUGUUGGUGCAAUAAGCUUGUGAAACAUGAGGAUCACCCAUGUCCUCAUAAGCUCGUCUUGU [salish99_TOv2_r2_087] (puzzle: Sensor v3, turn-off variant 2) ... 12.8
4) CCAUCGAGUGUGAGGAUAUGCUGUUCCUAAGAGCAGCAGAAGGCACAUGAGGAUCACCCAUGUGGAUACGGUGG [Mat - Exclusion 4 - JL Mod - D81] (puzzle: Brourd's mod of Exclusion 4) ... 31.1
5) GAAAAGGUAGGAUAUACGAAAAGAAAGGGUAGAAAGAAAACACAUGAGGAUCACCCAUGUAGAAGGACCAAAAG [salish99_ex2_r3_095] (puzzle: Exclusion 2) ... 26.8
6) AGAUGGCGAGGAUAUACAUGAGGAUCACCCAUGUGAGAGAAGAAAGUGAGGAAGAAAAGUAGAAGGCGCUGUCA [Mat - Exclusion 3 - Mod of Salish D11] (puzzle: Exclusion 3) ... 60

Form: Entry = CUUAGACAUGAGGAUCACCCAUGUGAGGAUAUGAUGCGAAUAAAGAAAGAAGAAAGCAUCAGAAGGCACAUAUG [Fiskers Ex 1 - 1] (puzzle: Exclusion 1) | System = MS2 coat protein | apparent KD of MS2 coat protein = ____
97.9

MS2 coat protein / apparent KD of MS2 coat protein / AAGUACCGUCACGAAAGUGAUGGUACAACAAGCAUGUAAACAUGAGGAUCACCCAUGUCCUCAUAUGCUCGUCUUAU [Sensor 3 - 63] (puzzle: Sensor v3, turn-off variant 2) : value?
533

Under MS2 coat protein: apparent KD of MS2 coat protein value of CUAGUCCGAGGAUAUAUUAAGUGAUACAUGAGGAUCACCCAUGUUAUUUAAUGGAUAUUAAUAGAAGGCGGACUAG [Mat - Exclusion 5 - JL mod - D78] (puzzle: Exclusion 5) ?
31.3

For MS2 coat protein, provide apparent KD of MS2 coat protein of UAAGAAGGUGUUAGGAUAUGCAGAGCAGGGCUAAGGCAGAAGGGACAUGAGGAUCACCCAUGUGCUACGGGUGC [Enrainbera] (puzzle: Brourd's mod of Exclusion 4) please.
35.9

* * *

# apparent KD of K4 kissing-loop reporter listing for each entry below
- Tested on: K4 kissing-loop RNA reporter
- Protocol: apparent KD of K4 kissing-loop reporter; higher = weaker reporter binding
- Reported Conditions: Eterna round: R107; input ligand: none

# annotated cases, reported apparent KD of K4 kissing-loop reporter shown
1) UGAUACCAGACGGCCGCCACUAGGACCGGGAGUGAUGUUCCAAAAUUAAAAUACUCGGCCGCCACUAGGACCGGGUCUGGUAUCU [TrypBX 25 #DoubleAptamer #SwitchBubble] ... 162 nM
2) GAAAUCACGGAUGAUACCAGCCAGAACUCUCACAGUGAUGUUGUGCUUAAAUGAUUAGGAGGCCCUUGGCAGCAUACGCUAAUUU [theeternabot_sameState_KL_Theo_B_36] ... 313 nM

For the next question, use this sequence.
API: value(readout= apparent KD of K4 kissing-loop reporter, system= K4 kissing-loop RNA reporter, query= GGAUAGGACAGAGGAUAUGGACAGUCUACAAAGUAGGCUGAAAAUCCUUGAAUGGAAGUGAUGUUUCCAGAAGGCUGUCCUAUCG [FmnBX 20 - #SwitchBubble #StaticStem #Palindromic] );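 also: bound reporter read as fluorescence of individual clusters on recovered sequencing chips by microscopy, with normalized cluster intensities fitted with a binding model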
165 nM
